The measurements presented in this section are drawn from patent US12257247B2.

Entries and their measured Dmax follow.
SYSTEM NAME: VAV1 (Homo sapiens, UniProt P15498+Q96SW2)
Construct: A heterozygous VAV1 C-terminal HiBiT knock-in pool was generated at Monte Rosa Therapeutics from a clonal Jurkat cell; endogenous in cells; host or cells: Jurkat clone stably expressing LgBiT, homozygous GSPT1-G575N; heterozygous VAV1-HiBiT knock-in pool
TEST SUMMARY: VAV1 degradation activity, VAV1-HiBiT knock-in Jurkat luminescence assay (Example A, Table 1)
Assay type: cell-based
TEST CONTEXT: Jurkat, VAV1-HiBiT knock-in Jurkat cells, luminescence read at 6 and 24 hours; read-out: VAV1 Dmax %
ENDPOINT: Dmax (%)

> print(dat)
                                    compound                               system.name  endpoint  reading.unit  value.measured
 1  O=C1CCC(c2cccc(-c3ccc(-n4cc(F)ccc4=O)cc3)c2Cl)C(=O)N1 (centres unmarked) [Compound 246]  VAV1 (Homo sapiens, UniProt P15498+Q96SW2)      Dmax             %            94.3
 2  Cn1ccc(COc2ccc(-c3cccc([C@H]4CCC(=O)NC4=O)c3Cl)cc2)n1 [Compound 213]  VAV1 (Homo sapiens, UniProt P15498+Q96SW2)      Dmax             %              92
 3  CN1CC(=O)N(Cc2ccc(-c3cccc(C4CCC(=O)NC4=O)c3Cl)cc2)CC1(C)C (centres unmarked) [Compound 257]  VAV1 (Homo sapiens, UniProt P15498+Q96SW2)      Dmax             %            94.2
 4  COc1ccn(Cc2ccc(-c3cccc(C4CCC(=O)NC4=O)c3Cl)cc2)c(=O)c1 (centres unmarked) [Compound 175]  VAV1 (Homo sapiens, UniProt P15498+Q96SW2)      Dmax             %            87.1
 5  O=C1CCC(c2cccc(-c3cnc(N4C(=O)CCC45CCC5)c(F)c3)c2Cl)C(=O)N1 (centres unmarked) [Compound 365]  VAV1 (Homo sapiens, UniProt P15498+Q96SW2)      Dmax             %              88
 6  O=C1CCC(c2cccc(-c3ccc(-n4cccnc4=O)c(F)c3)c2Cl)C(=O)N1 (centres unmarked) [Compound 419]  VAV1 (Homo sapiens, UniProt P15498+Q96SW2)      Dmax             %            90.7
 7  Nc1ccc(-c2cccc(C3CCC(=O)NC3=O)c2Cl)cc1 (centres unmarked) [Compound 130]  VAV1 (Homo sapiens, UniProt P15498+Q96SW2)      Dmax             %            84.6
 8  O=C1CCC(c2cccc(-c3ccc(CCN4CCOCC4)cc3)c2Cl)C(=O)N1 (centres unmarked) [Compound 122]  VAV1 (Homo sapiens, UniProt P15498+Q96SW2)      Dmax             %            81.3
 9  Cn1ccc(COc2ncc(-c3cccc(C4CCC(=O)NC4=O)c3Cl)cn2)n1 (centres unmarked) [Compound 479]  VAV1 (Homo sapiens, UniProt P15498+Q96SW2)      Dmax             %              31
10  O=C1CCC(c2cccc(-c3ccc(N4C(=O)CCCC45CC5)nc3)c2Cl)C(=O)N1 (centres unmarked) [Compound 389]  VAV1 (Homo sapiens, UniProt P15498+Q96SW2)      Dmax             %            88.5
11  O=C1CCC(c2cccc(-c3ccc(N4C(=O)CCCC4C(F)(F)F)cc3)c2Cl)C(=O)N1 (centres unmarked) [Compound 244]  VAV1 (Homo sapiens, UniProt P15498+Q96SW2)      Dmax             %            96.5
12  O=C1CCC(c2cccc(-c3ccc(N4CCCOC4=O)nc3)c2Cl)C(=O)N1 (centres unmarked) [Compound 451]  VAV1 (Homo sapiens, UniProt P15498+Q96SW2)      Dmax             %              64
13  O=C1CCC(c2cccc(-c3ccc(N4CCC4)cc3)c2Cl)C(=O)N1 (centres unmarked) [Compound 195]  VAV1 (Homo sapiens, UniProt P15498+Q96SW2)      Dmax             %            79.4
14  Cn1ccc(CNc2ccc(-c3cccc(C4CCC(=O)NC4=O)c3Cl)cc2)n1 (centres unmarked) [Compound 180]  VAV1 (Homo sapiens, UniProt P15498+Q96SW2)      Dmax             %            88.8
15  O=C1CCC(c2cccc(-c3ccc(CN4C(=O)COCC45CC5)cc3)c2Cl)C(=O)N1 (centres unmarked) [Compound 264]  VAV1 (Homo sapiens, UniProt P15498+Q96SW2)      Dmax             %            84.6
16  O=C1CCC(c2cccc(-c3ccc4c(cnn4Cc4ncccn4)c3)c2Cl)C(=O)N1 (centres unmarked) [Compound 396]  VAV1 (Homo sapiens, UniProt P15498+Q96SW2)      Dmax             %            96.9
17  O=C1CCC(c2cccc(-c3ccc(CN4Cc5ncccc5C4=O)cc3)c2Cl)C(=O)N1 (centres unmarked) [Compound 298]  VAV1 (Homo sapiens, UniProt P15498+Q96SW2)      Dmax             %            95.4
